Hello, the source for this data is PubChem BioAssay AID449762, in case you need it.

For each entry below, report its inhibition value.
assayExplanation: M. tuberculosis growth inhibition, HTS (AID 449762);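 note: bacterial growth assessed after seven days of incubation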
measurementParameters: M. tuberculosis H37Rv growth inhibition, 7H9 media; at 25 µM; hits give high values
The whole screen tested about 330,000 compounds, of which about 1,900 (0.58%) were called active. Not shown: some 4% with an inconclusive outcome. The list is a sample of the results. Entries with a potency or affinity are not part of this list.
Answers are plain numbers, in %.

Examples with answers:
O=C(O)C1C2C=CC(C2)C1C(=O)Nc1ccc(C(=O)N2CCCCC2)cc1 (centres undefined) : 1.87
O=[N+]([O-])c1cc([N+](=O)[O-])c(Oc2cc(F)ccc2F)cc1NN1CCCCC1 : 5.39

Could you report inhibition for every entry in the following list?
1. N/C(Cc1ccc(Cl)cc1)=N\OC(=O)c1ccc2ccccc2c1
2. C/C(=N\NC(=S)NCc1ccccc1)c1ccccc1F
3. COc1ccc(S(=O)(=O)CC(O)CN2CCCC2=O)cc1 (centres undefined)
4. Cc1cc(=O)[nH]c(N=N/C(=N/Nc2ccccc2C)c2ccccc2)n1
5. COC(=O)C1CCN(c2nc3ccccc3nc2C(C#N)C(=O)OCC(C)C)CC1 (centres undefined)
6. Cc1c(C(=O)NCc2ccccc2)cnn1-c1ccccc1
7. CCN1CCN(c2ccc(S(=O)(=O)N3CCOCC3)cc2NC(=O)COc2ccc(F)cc2Cl)CC1
8. CN(C(=S)NC(=O)c1ccccc1)C1CCCCC1

Reply:
0.18
-2.93
-0.37
68.7
-4.17
0.38
2.58
60.5

Could you report inhibition for every entry in the following list?
1. O=C(NC1CCN(S(=O)(=O)c2ccccc2F)CC1)c1ccco1
2. CCC(=O)Nc1cc(-c2nn(C)c(=O)c3ccccc23)ccc1N1CCCCC1
3. Cc1[nH][nH]c(=O)c1C(c1ccc(-c2cccc(Cl)c2)o1)c1c(C)[nH][nH]c1=O
4. O=C(Nc1ccccc1OCc1ccccc1)c1ccccc1Br
5. O=[N+]([O-])c1ccc(CN2CCCCCC2)s1
6. CCCCN(C(=O)c1ccc(C#N)cc1)c1c(N)n(CCC)c(=O)[nH]c1=O
7. CN(c1ccccc1)S(=O)(=O)c1ccc(C(=O)Nc2nnc(C3=COCCO3)o2)cc1

Reply:
1. -8.86
2. -0.54
3. 4.79
4. 12.7
5. -2.04
6. -1.21
7. 38.1

Could you report inhibition for every entry in the following list?
1. COc1ccc(N/C(N)=N/c2nc(C)cc(=O)[nH]2)cc1
2. Cc1noc(C)c1COc1ccc(C(=O)OCC(=O)NC2CCCCC2C)cc1 (centres undefined)

Reply:
1. 4.61
2. 48.8

* * *

assayExplanation: M. tuberculosis growth inhibition, HTS (AID 449762);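 note: bacterial growth assessed after seven days of incubation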
measurementParameters: M. tuberculosis H37Rv growth inhibition, 7H9 media; at 25 µM; hits give high values
Out of some 330,000 compounds screened, about 1,900 (0.58%) were called active. Another 4% or so got no clear call; they are omitted. These entries were drawn from the full list. Measured potencies and affinities stand elsewhere.
For each entry below, report its inhibition value.
One number for each entry, in %.

O=C1C(Cc2ccccc2)Nc2ncnc(N3CCN(c4ccccc4)CC3)c2N1Cc1ccc(Br)cc1 (centres undefined) : 0.68

Could you report inhibition for every entry in the following list?
1. COc1ccc(Cl)cc1NC(=O)CSc1nnc(-c2ccco2)o1
2. Nc1cc(Cl)ccc1Oc1ccccc1
3. COc1ccc(C(=O)c2c(-c3ccc(OC)cc3)oc3ccc(-c4ccc(OC)nc4)cc23)cc1
4. CCCC(=O)OCC(=O)Nc1ccc([N+](=O)[O-])cc1C#N
5. Cc1ccc(NC(=O)COC(=O)CCn2c(C)csc2=O)cc1S(=O)(=O)N1CCOCC1
6. Cc1ccccc1C(=O)Nc1cccc(N)c1
7. Oc1ccc(Nc2nc(-c3ccccc3)nc3ccccc23)cc1
8. C#CCOCCOCCOCCNc1nc(N2CCN(C(=O)[C@H](CCC(=O)O)n3cc([C@@H](N)[C@H](C)CC)nn3)CC2)nc(N2CCN(C(=O)[C@H](CCC(=O)O)n3cc([C@@H](N)CCSC)nn3)CC2)n1

Reply:
1. -2.66
2. -2.47
3. 64.6
4. 0.66
5. -2.47
6. -3.59
7. 10.3
8. 3.47
